protocol: Toxic dose was determined after (ip) administration of a dose of 2.3 mg/kg in mice at 1000-rad-gamma-radiation for 30 mins
Assay type: toxicity, organism-based
Set-up: dose 2.3 mg/kg
applied-conditions: mouse, in vivo
quantity-measured: LD50 at 0.5 h (mg/kg)
The response must be a number in mg/kg with no trailing unit.

Request: Need LD50 at 0.5 h, item CCCCSC(=Cc1cccc[n+]1C)SCCCC.[I-]
Result: 3

###

Tested on: Mus musculus
protocol: Percent survival was determined over a period of 30 days after intraperitoneal administration of a dose of 37.5 mg/kg in mice
Format: functional
applied-conditions: ip, 720 h
Below, each entry is listed alongside its reported survival at 37.5 mg/kg.
Provide only the numeric value, understood in %.

Completed entries (count: 4):
COCCN/C(=C/c1ccc2ccccc2[n+]1C)SC.[I-] : 0
CS/C(=C\c1ccc2ccccc2[n+]1C)NCCCO.[I-] : 0
CN(C)CCNC(=Cc1ccc2ccccc2[n+]1C)NCCN(C)C.[I-] : 0
CSC(=Cc1ccc2ccccc2[n+]1C)SC.[I-] : 0

# next compound below
Request: Quick check: survival at 37.5 mg/kg of Cc1ccc2c(ccc(CC(=S)[S-])[n+]2C)c1 ?
Result: 10

###

protocol: Toxic dose was determined after (ip) administration of a dose of 4.69 mg/kg in mice at 1000-rad-gamma-radiation for 30 mins
Format: toxicity, organism-based
Design: dose 4.69 mg/kg
applied-conditions: mouse, in vivo
quantity-measured: LD50 at 0.5 h (mg/kg)
A number alone suffices; assume mg/kg.

Request: Could you tell me which LD50 at 0.5 h is on file for CS/C(=C\c1ccc2ccccc2[n+]1C)N1CCCCC1.[I-] ?
Result: 5

###

protocol: Toxic dose was determined after (ip) administration of a dose of 9.4 mg/kg in mice at 1000-rad-gamma-radiation for 30 mins
Type: toxicity, organism-based
Parameters: dose 9.4 mg/kg
applied-conditions: mouse, in vivo
# maps each entry to its LD50 at 0.5 h
# number only, unit mg/kg dropped from output

Previously resolved entries follow.
CCSC(=Cc1cccc[n+]1C)SCC.[I-] : 20
CS/C(=C\c1cccc[n+]1C)N1CCCCC1.[I-] : 25
CSC(=Cc1cccc(C=C(SC)SC)[n+]1C)SC.[I-] : 25
COc1ccc2c(ccc(C=C(SC)SC)[n+]2C)c1.[I-] : 30

Below: the item to evaluate.
Request: Reported LD50 at 0.5 h, compound CSC(=Cc1c2ccccc2cc[n+]1C)SC.[I-] : ____
Result: 15

###

protocol: Toxic dose was determined after (ip) administration of a dose of 75 mg/kg in mice at 1000-rad-gamma-radiation for 30 mins
Type: toxicity, organism-based
Design: dose 75 mg/kg
applied-conditions: mouse, in vivo
quantity-measured: LD50 at 0.5 h
State the value with its unit after it.

Request: Requested field: LD50 at 0.5 h. Item: CN(C)CCNC(=Cc1ccc2ccccc2[n+]1C)NCCN(C)C.[I-]
Result: 90 mg/kg

###

Reported LD50 at 0.5 h values are given for each entry in this list.
protocol: Toxic dose was determined after (ip) administration of a dose of 37.5 mg/kg in mice at 1000-rad-gamma-radiation for 30 mins
Assay type: toxicity, organism-based
Parameters: dose 37.5 mg/kg
applied-conditions: mouse, in vivo
Note: unit mg/kg is implicit; provide only the numeric part.

COCCN/C(=C/c1ccc2ccccc2[n+]1C)SC.[I-] : 50

Here is another molecule to look at.
Request: # lookup: LD50 at 0.5 h of CS/C(=C\c1ccc2ccccc2[n+]1C)NCCCO.[I-]
Result: 50
